# Tested on: Escherichia coli TOP10
# procedure.summary: shrunken log2 fold change of peptide-encoding DNA abundance (4.5 h post-induction vs induction); higher = less antimicrobial activity (less host growth inhibition)
# condition.set: time post-induction: 4.5 h; library: site-saturation at positions 5, 18, 19, 20
Class assignment keyed on shrunken log2 fold change, ranges A: < -0.02; B: ≥ -0.02 and < 0.3; C: ≥ 0.3

QUERY: Class label required: RRIRSRPPRLPRPRPRPEKGPRP
RESULT: B

###

Items are presented alongside their recorded shrunken log2 fold change.
# Tested on: Escherichia coli TOP10
# procedure.summary: shrunken log2 fold change of peptide-encoding DNA abundance (4.5 h post-induction vs induction); higher = less antimicrobial activity (less host growth inhibition)
# condition.set: time post-induction: 4.5 h; library: site-saturation at positions 5, 18, 19, 20
Answer with a number only.

>>> readout_number("RRIRERPPRLPRPRPRPYQLPRP")
-0.0108
>>> readout_number("RRIRIRPPRLPRPRPRPSNTPRP")
-0.515
>>> readout_number("RRIRPRPPRLPRPRPRPKGLPRP")
0.062
>>> readout_number("RRIRNRPPRLPRPRPRPACCPRP")
0.236
>>> readout_number("RRIRMRPPRLPRPRPRPYSEPRP")
0.171

QUERY: Value wanted: shrunken log2 fold change (Escherichia coli TOP10) of entry RRIRTRPPRLPRPRPRPLPFPRP
RESULT: -0.518

QUERY: Value wanted: shrunken log2 fold change (Escherichia coli TOP10) of entry RRIRHRPPRLPRPRPRPVPSPRP
RESULT: 0.0513

###

# Tested on: Escherichia coli TOP10
# procedure.summary: shrunken log2 fold change of peptide-encoding DNA abundance (4.5 h post-induction vs induction); higher = less antimicrobial activity (less host growth inhibition)
# condition.set: time post-induction: 4.5 h; library: site-saturation at positions 5, 18, 19, 20
Class assignment keyed on shrunken log2 fold change, ranges Low = under -0.2, Mid = from -0.2 up to 0.1, High = 0.1 and over

See these solved cases before continuing.
>>> assigned_label("RRIRARPPRLPRPRPRPAPGPRP")
"High"
>>> assigned_label("RRIRERPPRLPRPRPRPNFFPRP")
"Mid"
>>> assigned_label("RRIRGRPPRLPRPRPRPQSSPRP")
"Mid"
>>> assigned_label("RRIRRRPPRLPRPRPRPQSIPRP")
"Mid"
>>> assigned_label("RRIRYRPPRLPRPRPRPVFNPRP")
"Low"

QUERY: Class label required: RRIRDRPPRLPRPRPRPQFRPRP
RESULT: Low

QUERY: Class label required: RRIRTRPPRLPRPRPRPNYIPRP
RESULT: Low

QUERY: Class label required: RRIRYRPPRLPRPRPRPFFAPRP
RESULT: Mid

QUERY: Class label required: RRIRFRPPRLPRPRPRPPKQPRP
RESULT: High

QUERY: Class label required: RRIRMRPPRLPRPRPRPNFGPRP
RESULT: Mid

QUERY: Class label required: RRIRWRPPRLPRPRPRPPKGPRP
RESULT: High

###

# Test system: Escherichia coli TOP10
# procedure.summary: shrunken log2 fold change of peptide-encoding DNA abundance (4.5 h post-induction vs induction); higher = less antimicrobial activity (less host growth inhibition)
# condition.set: time post-induction: 4.5 h; library: site-saturation at positions 5, 18, 19, 20
reported.endpoint: shrunken log2 fold change
Answer with a number only.

>>> readout_number("RRIRQRPPRLPRPRPRPHKWPRP")
-0.2
>>> readout_number("RRIRMRPPRLPRPRPRPWHHPRP")
-0.0514

QUERY: Item RRIRNRPPRLPRPRPRPHVSPRP has what recorded shrunken log2 fold change?
RESULT: -0.00166

QUERY: Item RRIRHRPPRLPRPRPRPPQTPRP has what recorded shrunken log2 fold change?
RESULT: -0.00347

###

# Test system: Escherichia coli TOP10
# procedure.summary: shrunken log2 fold change of peptide-encoding DNA abundance (4.5 h post-induction vs induction); higher = less antimicrobial activity (less host growth inhibition)
# condition.set: time post-induction: 4.5 h; library: site-saturation at positions 5, 18, 19, 20
reported.endpoint: shrunken log2 fold change
Answer with a number only.

Observe how each entry below is paired with its result.
>>> readout_number("RRIRYRPPRLPRPRPRPLKGPRP")
-0.00142
>>> readout_number("RRIRERPPRLPRPRPRPLSQPRP")
-0.406
>>> readout_number("RRIRCRPPRLPRPRPRPINAPRP")
0.695
>>> readout_number("RRIRIRPPRLPRPRPRPIKRPRP")
-0.0331
>>> readout_number("RRIRYRPPRLPRPRPRPGRGPRP")
0.254
>>> readout_number("RRIRQRPPRLPRPRPRPFCCPRP")
-0.114

QUERY: Item RRIRCRPPRLPRPRPRPDALPRP has what recorded shrunken log2 fold change?
RESULT: 0.0862

QUERY: Item RRIRERPPRLPRPRPRPKCEPRP has what recorded shrunken log2 fold change?
RESULT: 0.0279

###

# System: Escherichia coli TOP10
# procedure.summary: shrunken log2 fold change of peptide-encoding DNA abundance (4.5 h post-induction vs induction); higher = less antimicrobial activity (less host growth inhibition)
# condition.set: time post-induction: 4.5 h; library: site-saturation at positions 5, 18, 19, 20
Class assignment keyed on shrunken log2 fold change, ranges low = under -0.2, mid = from -0.2 up to 0.06, high = 0.06 and over

>>> assigned_label("RRIRQRPPRLPRPRPRPKTQPRP")
"high"
>>> assigned_label("RRIRVRPPRLPRPRPRPCVCPRP")
"mid"

QUERY: Class label required: RRIRHRPPRLPRPRPRPTKMPRP
RESULT: high

QUERY: Class label required: RRIRYRPPRLPRPRPRPHAHPRP
RESULT: low

QUERY: Class label required: RRIRDRPPRLPRPRPRPTINPRP
RESULT: high

QUERY: Class label required: RRIRHRPPRLPRPRPRPTMMPRP
RESULT: low

QUERY: Class label required: RRIRGRPPRLPRPRPRPWSNPRP
RESULT: mid

QUERY: Class label required: RRIRPRPPRLPRPRPRPFRRPRP
RESULT: mid

QUERY: Class label required: RRIRCRPPRLPRPRPRPPFIPRP
RESULT: mid

QUERY: Class label required: RRIRYRPPRLPRPRPRPFDQPRP
RESULT: low

QUERY: Class label required: RRIRMRPPRLPRPRPRPEHHPRP
RESULT: high

QUERY: Class label required: RRIRQRPPRLPRPRPRPSVHPRP
RESULT: low

QUERY: Class label required: RRIRVRPPRLPRPRPRPYQLPRP
RESULT: low

QUERY: Class label required: RRIRARPPRLPRPRPRPSVPPRP
RESULT: mid

###

# Test system: Escherichia coli TOP10
# procedure.summary: shrunken log2 fold change of peptide-encoding DNA abundance (4.5 h post-induction vs induction); higher = less antimicrobial activity (less host growth inhibition)
# condition.set: time post-induction: 4.5 h; library: site-saturation at positions 5, 18, 19, 20
Items are presented alongside their recorded shrunken log2 fold change.
Answer with a number only.

>>> readout_number("RRIRYRPPRLPRPRPRPDSCPRP")
0.0675
>>> readout_number("RRIRERPPRLPRPRPRPAFFPRP")
0.00883
>>> readout_number("RRIRHRPPRLPRPRPRPLFYPRP")
-0.702

Next:
QUERY: Item RRIRNRPPRLPRPRPRPTHFPRP has what recorded shrunken log2 fold change?
RESULT: -0.659

###

# Tested on: Escherichia coli TOP10;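 also: peptides expressed intracellularly from a pBAD plasmid library in pooled LB shake-flask culture, induced with 0.3% L-arabinose, DNA abundance read by NGS, three biological replicates, DESeq2 with apeglm shrinkage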
# procedure.summary: shrunken log2 fold change of peptide-encoding DNA abundance (4.5 h post-induction vs induction); higher = less antimicrobial activity (less host growth inhibition)
# condition.set: time post-induction: 4.5 h; library: site-saturation at positions 5, 18, 19, 20
Class assignment keyed on shrunken log2 fold change, ranges bottom (below -0.2), middle (-0.2 to below 0.05), top (0.05 or more)

>>> assigned_label("RRIRGRPPRLPRPRPRPNGSPRP")
"middle"
>>> assigned_label("RRIRARPPRLPRPRPRPHWEPRP")
"middle"
>>> assigned_label("RRIRHRPPRLPRPRPRPQVSPRP")
"middle"
>>> assigned_label("RRIRQRPPRLPRPRPRPERCPRP")
"middle"
>>> assigned_label("RRIRHRPPRLPRPRPRPKMSPRP")
"top"

QUERY: Class label required: RRIRSRPPRLPRPRPRPTQIPRP
RESULT: middle

QUERY: Class label required: RRIRQRPPRLPRPRPRPHPCPRP
RESULT: middle

QUERY: Class label required: RRIRFRPPRLPRPRPRPLTSPRP
RESULT: middle

QUERY: Class label required: RRIRKRPPRLPRPRPRPEMNPRP
RESULT: top

QUERY: Class label required: RRIRRRPPRLPRPRPRPHNHPRP
RESULT: bottom

QUERY: Class label required: RRIRRRPPRLPRPRPRPIISPRP
RESULT: middle

QUERY: Class label required: RRIRPRPPRLPRPRPRPEKFPRP
RESULT: middle

QUERY: Class label required: RRIRWRPPRLPRPRPRPHWWPRP
RESULT: top

QUERY: Class label required: RRIRSRPPRLPRPRPRPACIPRP
RESULT: bottom

QUERY: Class label required: RRIRIRPPRLPRPRPRPEHLPRP
RESULT: middle
